- subject-of-test: T1, human MSLN (mesothelin) (human, UniProt Q13421 296-598)
- T1 construct: The construct coated on the plates is not described; also called human mesothelin
- protocol-details: ELISA on human MSLN, B cell culture supernatant, 1st screening
Rule for this label: y means Optical Density (Anti-MSLN reactivity, 1st screening) is less than 0.3 OD; n means Optical Density (Anti-MSLN reactivity, 1st screening) is at least 0.3 OD.

Look over these answered cases.
>>> label("178F16 (rabbit anti-MSLN mAb) (antibody, V domains shown) VH: QSLEESGGRLVTPGTPLTLTCTASGFSLSNYAMTWVRQAPGKGLEYIGIISTGGITYYMDSAKGRFTISRTSTTVDLKMTSLTTEDTATYFCGRNAGGSYIFYYFDLWGQGTLVTVSS VL: AFELTQTPSSVEAAVGGTVTIKCQASQSIYSYLAWYQQKPGQPPKLLIYSASTLASGVSSRFRGSGSGTEYILTISDLECADAATYYCQTYYDIVTSTFGGGTEVVVK")
"n"
>>> label("33O11 (rabbit anti-MSLN mAb) (antibody, V domains shown) VH: QSVEESGGRLVTPGTPLTLTCTVSGISLSSDAISWVRQAPGKGLEYIGIINGGGNTYYASWAKGRFTISKTSTTVDLKITSPTTEDTATYFCARGIQHGGGNSDYYYYGMDLWGPGTLVTVSS VL: EVLMTQTPSSVSAAVGDTVTIKCQASQSISSVLSWYQQKPGQPPKLLIYLASTLASGVPSRFSGSRSGTEFTLTISDLECDDAATYYCQTNYGTSSSNYGFAFGGGTEVVVK")
"y"
>>> label("237N18 (rabbit anti-MSLN mAb) (antibody, V domains shown) VH: QSLEESGGRLVAPGTPLTLTCTVSGFSLSSYHMSWVRQAPGEGLEWIGGITAMSRTYYASWAKGRFTISKTSTTVHLKITSPTTEDTATYFCAREPGFVSNIWGPGTLVTVSL VL: AVVLTQTASPVSGVVGGTVTIKCQASQNIYSNLAWYQQKPGQRPKLLMYDASTLASGVPSRFKGSGSGTQFTLTISDLECADAATYYCQSISSVDNNVFGGGTEVVVK")
"n"
>>> label("383I18 (rabbit anti-MSLN mAb) (antibody, V domains shown) VH: QSVEESGGRLVTPGTPLTLTCTVSGFSLSSYAMGWVRQAPGEGLEWIGTISTGGITYYASWAKGRFTISKTSTTVDLKITSPTTEDTATYFCARVGSSGYLFYFFNLWGQGTLVTVSS VL: VFELTQTPSPVSAAVGGTVTIRCQASQNIKSYLAWYQQKPGQPPKLLIYEASILASGVSSRFKGSGSGTEFTLTISDLECADAATYYCQSYYAASSNAFGGGTEVVVK")
"y"

Attention now shifts to the item below.
Query block: Hi there! Is Optical Density (Anti-MSLN reactivity, 1st screening) for 324O5 (rabbit anti-MSLN mAb) (antibody, V domains shown) VH: QSLEESGGRLVTPGTPLTLTCTASGFSLSNYAMTWVRQAPGKGLEYIGIISTGGITYYMDSAKGRFTISRTSTTVDLKMTSLTTEDTATYFCGRNAGGSYIFYYFDLWGQGTLVTVSS VL: AFELTQTPSSVEAAVGGTVTIKCQASQSIYSYLAWYQQKPGQPPKLLIYSASTLASGVSSRFRGSGSGTEYTLTISDLECADAATYYCQTYYDIVTSTFGGGTEVVVK below 0.3 OD, do you know?
Result block: n
